The origin of these recorded values is PubChem BioAssay AID1347048.

Biological target: Atrial natriuretic peptide receptor 1 (Homo sapiens) (UniProt P16066)
Sequence (P16066 whole entry, looked up): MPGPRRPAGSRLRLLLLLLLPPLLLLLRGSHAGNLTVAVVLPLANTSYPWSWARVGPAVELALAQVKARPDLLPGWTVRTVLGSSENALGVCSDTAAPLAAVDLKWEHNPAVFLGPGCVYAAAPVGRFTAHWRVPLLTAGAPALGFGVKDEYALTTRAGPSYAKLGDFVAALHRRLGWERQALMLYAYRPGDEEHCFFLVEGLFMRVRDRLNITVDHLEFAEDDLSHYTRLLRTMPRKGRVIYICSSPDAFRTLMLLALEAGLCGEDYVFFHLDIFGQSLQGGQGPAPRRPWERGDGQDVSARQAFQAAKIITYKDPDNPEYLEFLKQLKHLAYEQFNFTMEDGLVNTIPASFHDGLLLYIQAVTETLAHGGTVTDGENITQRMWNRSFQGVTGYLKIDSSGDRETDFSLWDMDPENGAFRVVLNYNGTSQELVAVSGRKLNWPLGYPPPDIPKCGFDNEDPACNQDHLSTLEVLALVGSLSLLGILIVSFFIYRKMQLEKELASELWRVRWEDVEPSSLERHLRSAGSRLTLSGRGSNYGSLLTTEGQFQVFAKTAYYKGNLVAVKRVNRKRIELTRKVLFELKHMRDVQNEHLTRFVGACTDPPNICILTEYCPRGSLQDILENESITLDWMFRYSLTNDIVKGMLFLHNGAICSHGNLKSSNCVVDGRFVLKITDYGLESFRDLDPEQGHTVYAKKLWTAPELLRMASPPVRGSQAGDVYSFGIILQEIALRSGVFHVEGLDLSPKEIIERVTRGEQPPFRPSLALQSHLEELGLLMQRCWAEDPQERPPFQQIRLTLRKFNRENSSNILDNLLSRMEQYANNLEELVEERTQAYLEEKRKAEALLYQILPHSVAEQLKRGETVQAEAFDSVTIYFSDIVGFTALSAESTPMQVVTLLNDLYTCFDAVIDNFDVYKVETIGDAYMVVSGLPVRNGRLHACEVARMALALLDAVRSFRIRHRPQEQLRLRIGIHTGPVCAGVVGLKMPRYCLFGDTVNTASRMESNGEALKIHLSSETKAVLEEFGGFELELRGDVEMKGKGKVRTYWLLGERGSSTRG
Test: Natriuretic polypeptide receptor (hNpr1) antagonism - Primary qHTS; further: nearly all actives have a fitted effect of over 60% in size
Conditions: HEK293 hNpr1 GloSensor cGMP, ANP-stimulated luminescence; series mostly up to 46.3 µM
Hit rate of the full screen: of about 76,000 compounds, about 1,200 (1.6%) were called active. Not shown: some 4% with an inconclusive outcome. The call rests on the fitted dose curve. What follows is part of a selection rich in actives, with near analogues and random picks from the rest.
Outcome codes: 1 (active), 0 (inactive)

[
  {
    "COMPOUND": "O=C(NC1CCCC1)N1CCCC(c2noc(COc3ccccc3)n2)C1 (stereo unspecified)",
    "TARGET DESC": "Atrial natriuretic peptide receptor 1 (Homo sapiens) (UniProt P16066)",
    "CLASS ASSIGNMENT": 0
  },
  {
    "COMPOUND": "O=C(c1ccncc1)N1CCC(Oc2ccccc2)C1 (stereo unspecified)",
    "TARGET DESC": "Atrial natriuretic peptide receptor 1 (Homo sapiens) (UniProt P16066)",
    "CLASS ASSIGNMENT": 0
  },
  {
    "COMPOUND": "O=C(c1ccoc1)N1CC(Oc2ccc(-c3nc(-c4ccccc4)no3)cc2)C1",
    "TARGET DESC": "Atrial natriuretic peptide receptor 1 (Homo sapiens) (UniProt P16066)",
    "CLASS ASSIGNMENT": 0
  },
  {
    "COMPOUND": "O=C(NC1CCCCC1)N1CCCCCC1c1nc(-c2cccnc2)no1 (stereo unspecified)",
    "TARGET DESC": "Atrial natriuretic peptide receptor 1 (Homo sapiens) (UniProt P16066)",
    "CLASS ASSIGNMENT": 0
  },
  {
    "COMPOUND": "O=C(NC1CCCC1)N1CCC(Oc2ccc(-c3noc(C4CC4)n3)cc2)C1 (stereo unspecified)",
    "TARGET DESC": "Atrial natriuretic peptide receptor 1 (Homo sapiens) (UniProt P16066)",
    "CLASS ASSIGNMENT": 1
  },
  {
    "COMPOUND": "Cc1cccc(C(=O)N2CCC(Oc3ccc(-c4noc(C(C)C)n4)cc3)C2)c1 (stereo unspecified)",
    "TARGET DESC": "Atrial natriuretic peptide receptor 1 (Homo sapiens) (UniProt P16066)",
    "CLASS ASSIGNMENT": 1
  }
]
